B1: TPR t1 (parent)
chain: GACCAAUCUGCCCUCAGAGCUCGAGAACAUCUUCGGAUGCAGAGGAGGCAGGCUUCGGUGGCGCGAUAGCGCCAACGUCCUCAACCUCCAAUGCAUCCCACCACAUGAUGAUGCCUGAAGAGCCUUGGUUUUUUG

Variants of: B1
measurementNotes: polymerase ribozyme fitness, log enrichment relative to wild type (log ratio); higher = more active; in vitro selection for triplet polymerase activity
We begin with a simple list: items and their reported polymerase ribozyme fitness (log ratio).
Number only, no unit.

Reference set, count: 3
- variantDescriptor: "C72U C79G G113C A118U"
  quantityKind: "polymerase ribozyme fitness (log ratio)"
  reported: -5.9
- variantDescriptor: "A5U G69C"
  quantityKind: "polymerase ribozyme fitness (log ratio)"
  reported: -2.22
- variantDescriptor: "C8U U32C C62A G117U"
  quantityKind: "polymerase ribozyme fitness (log ratio)"
  reported: -2.35

Now, please, on to the next variant.
Give me measured polymerase ribozyme fitness (log ratio), please, for this variant: A46G C101A
-0.288
